growth inhibition values for the molecules below.
Experiment: NCI Yeast Anticancer Drug Screen. Data for the cln2 rad14 strain (AID 165);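 also: 0% = growth equal to vehicle treated cultures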
Details: S. cerevisiae cln2 rad14 strain, at 50.0 µM, active compounds read high
This is part of a sample that, as a whole, favours compounds with a hit. Of some 79,000 tested, about 15% had one in any assay.

molecule	growth inhibition, %
O=S(Nc1ccc(Cl)cc1)c1ccccc1 (stereo not given)	4.1
COc1ccc(CCN(C)C2c3ccccc3C=Cc3ccccc32)cc1OC	-16.2
CC(=O)Nc1c(C)ncn(-c2ccccc2)c1=O	-28.4
Cc1cccc(Cl)c1NC(=O)C(Cl)Cl	4.55
Cc1ccc(S(=O)(=O)Nc2ccc3nc(C)oc3c2)cc1	14.7
COC(=O)C1=NOC(COc2ccc([N+](=O)[O-])cc2)C1 (stereo not given)	-8.55
CC1=C(C)CC2(CC1)C(=O)C1(CCC(C)=C(C)C1)C2=O (stereo not given)	14.1
CCC(C)(O)C#CC(C)(O)CC (stereo not given)	-63
CC(=O)N1CCOCC1	-28.6
CC(=O)OCC1OC(SC2=NC(=O)CS2)C(OC(C)=O)C(OC(C)=O)C1OC(C)=O (stereo not given)	-6.6
C=C(C)CS(=O)(=O)O	-13.1
CCc1nc(N)nc(C(=O)NCCNC(=O)c2nc(N)nc(CC)c2C)c1C	-16.7
Cc1ccc(N=Cc2ccccc2O)cc1.[Co]	14.2
CCCCCCCCCCCCCCCCN=C1C=Cc2ccccc2C1=NCCCCCCCCCCCCCCCC	11.6
CCC(O)CNCc1ccnc2ccc(OC)cc12 (stereo not given)	-45.4
CC1=CC(=N/S(=O)(=O)c2ccccc2)/C2CC(C)=C(C)CC2/C1=N\S(=O)(=O)c1ccccc1 (stereo not given)	56.6
CC(=O)OC1CCC2(C)C(CCC3C2CCC2(C)C3CCC2C(C)(C)O)C1 (stereo not given)	-9.15
CNc1ccc2c(c1)C(=O)c1ccccc1-2	19.9
Nc1c(S(=O)(=O)O)ccc2c1C(=O)c1ccccc1C2=O	6.5
CNC(=O)OCc1nc(SC)n(Cc2ccccc2)c1COC(=O)NC	-1.1
CCOC(=O)C(C)(/C=N/NS(=O)(=O)c1ccc(C)cc1)c1ccccc1 (stereo not given)	5.7
CCN(CC)CCC(=O)c1ccc(OC)cc1	23.4
Cc1ccc(S(=O)(=O)NC(=O)N(Cc2ccccc2)C(C)(C)C)cc1	-0.15
Clc1ccc(-c2nnc3c4ccccc4ccn23)cc1	9.55
O=c1[nH]nc(-c2ccc3c(c2)Cc2ccccc2-3)c2ccccc12	-1.95
CC(C)C(=O)NCc1ccccc1Sc1ccccc1CNC(=O)C(C)C	-10
O=C(O)c1cncc(-c2ccccc2)c1	14.1
CC(/C=C/c1ccccc1)=N\NC(=S)N/N=C(C)/C=C/c1ccccc1	9.3
c1ccc(C2(c3ccccc3)Oc3ccccc3O2)cc1	-37.5
CCCC(=O)n1[nH]c(=O)n(-c2ccc(Cl)cc2)c1=O	3.25
Cc1cccc(-c2nnc(-c3cccc4ccccc34)o2)c1	14.3
O=C(COc1ccc(Cl)cc1Cl)Nc1ccc2ccccc2c1S(=O)(=O)O	-5.95
CC(C#N)Nc1ccc(Oc2ccc(C(C)(C)c3ccc(Oc4ccc(NC(C)C#N)cc4)cc3)cc2)cc1 (stereo not given)	7.1
COc1nc(N)c(NC(C)=O)c(=O)n1C	-4.3
CN(C)c1ccc(/C=N\N=C\c2ccco2)cc1	-40.2
O=S(=O)(c1ccccc1)c1ccccc1Br	-18.4
O=C(/C=C/c1ccc(Cl)c(Cl)c1)c1ccccc1	-16.9
CCOc1ccc(C(=O)CCC(=O)Nc2ccc(Br)cc2)cc1	-7.3
CCNC(=O)COc1ccc(Br)cc1Br	11.2
Cc1cc2ccccc2n1C	10.1
O=C1c2cc(F)ccc2-c2c(F)cc(F)cc21	40.5
CN(C)c1ccc(/C=C2N=C(/C=C\c3ccccc3)OC\2=O)cc1	0.25
COc1cc(NCC(C#N)C#N)ccc1N=Nc1ccc([N+](=O)[O-])cc1	18.8
COc1ccc(NC(=O)NCc2ccc(C)c(C)c2)cc1	-3.05
N#CCCC1(CCC#N)CCc2ccccc2C1=O	25.9
CCO[Si](CCCN)(OCC)OCC	0.95
O=c1ccnc2ccc3n[nH][nH]c3c12	3.55
O=C1NCC2(CCN(CC3COc4ccccc4O3)CC2)N1c1ccccc1 (stereo not given)	-2.95
CC(C)(C)N1COCC(COc2ccc(Cl)cc2)OC1 (stereo not given)	11.4
CCN(CC)CC(O)Cn1cnc2c(=S)nc[nH]c21 (stereo not given)	4.9
